system: Zika virus NS2B-NS3 protease (unlinked complex); assay: Primary screen GU Rhodamine qHTS for Zika virus inhibitors: Unlinked NS2B-NS3 protease assay (AID 1347159); details: Recombinant ZIKV NS2B-NS3 protease, Rhodamine110 substrate fluorescence; series mostly up to 107 µM; note: % is set by controls: 0 for no effect and ±100 for the full control effect; nearly all actives have a fitted effect of over 60% in size
Inconclusive results are not listed. Calls of active or inactive are those of the source. Calls come from the whole dose curve; as a rule, active = well fitted inhibition curve with a large enough effect; inconclusive = small, poorly fitted or top-dose-only effect; inactive = no such curve, though single readings can be large or run the other way. Where a SMILES comes first, the peptide text is derived from it.
Measured activity change, negative = inhibition by item
MEASURED ATTRIBUTE: activity change, negative = inhibition

1. C[C@@H]1O[C@@H](O[C@H]2[C@H](OC(=O)[C@]34CCC(C)(C)C[C@H]3C3=CCC5[C@@]6(C)CC[C@H](O[C@@H]7O[C@H](CO[C@@H]8OC[C@H](O)[C@H](O)[C@H]8O)[C@@H](O)[C@H](O)[C@H]7O)C(C)(C)C6CC[C@@]5(C)[C@]3(C)C[C@H]4O)OC[C@@H](O)[C@@H]2O)[C@H](O)[C@H](O)[C@H]1O[C@@H]1OC[C@H](O)[C@H](O[C@@H]2OC[C@@H](O)[C@H](O)[C@H]2O)[C@H]1O (stereo not given in full) | -11.8% [at 19.1 µM] (inactive)
2. C[C@@H](O)[C@H](N)C(=O)N1CCC[C@H]1C(=O)N1CCC[C@H]1C(=O)N[C@H](C(N)=O)[C@@H](C)O (H-TPPT-NH2) | -7.3% [at 19.1 µM] (inactive)
3. C[C@@H]1O[C@@H](O[C@H]2[C@H](O[C@H]3CC[C@@]4(C)C(CC[C@]5(C)C4CC=C4C6CC(C)(C)CC[C@]6(C(=O)O[C@@H]6O[C@H](CO[C@@H]7O[C@H](CO)[C@@H](O[C@@H]8O[C@@H](C)[C@H](O)[C@@H](O)[C@H]8O)[C@H](O)[C@H]7O)[C@@H](O)[C@H](O)[C@H]6O)CC[C@]45C)[C@]3(C)CO)OC[C@H](O)[C@@H]2O)[C@H](O)[C@H](O)[C@H]1O (stereo not given in full) | 20.6% [at 19.1 µM] (inactive)
4. CNC(=O)[C@H]1O[C@@H](n2cnc3c(NCc4ccc(N)c(I)c4)ncnc32)[C@H](O)[C@@H]1O | 10.8% [at 19.1 µM] (inactive)
5. CC(=O)O[C@H]1CC[C@@]2(CI)C(=CC[C@@H]3[C@@H]2CC[C@]2(C)[C@@H]([C@H](C)CCCC(C)C)CC[C@@H]32)C1 | 13.5% [at 19.1 µM] (inactive)
6. C/C=C(\C)C(=O)O[C@@H]1CC2[C@@H](CC=C3C[C@@H](O[C@H]4C[C@H](OC)[C@H](O[C@H]5C[C@H](OC)[C@H](O[C@H]6C[C@H](OC)[C@H](O[C@H]7C[C@@H](OC)[C@H](O[C@@H]8O[C@H](CO)[C@@H](O)[C@H](O)[C@H]8O)[C@@H](C)O7)[C@@H](C)O6)[C@@H](C)O5)[C@@H](C)O4)CC[C@@]32C)[C@@]2(O)CC[C@H](C(C)=O)[C@@]12C (stereo not given in full) | 20.3% [at 19.1 µM] (inactive)
7. C[C@@H]1O[C@@H](O[C@H]2[C@H](OC(=O)C34CCC5(C)C(=CCC6C7(C)CC(O)C(O[C@@H]8O[C@H](C(=O)O)[C@@H](O)[C@H](O)[C@H]8O)C(C)(C(=O)O)C7CCC65C)C3CC(C)(C)CC4O)O[C@H](C)[C@@H](O)[C@@H]2O)[C@H](O)[C@@H](O[C@@H]2OC[C@](O)(CO)[C@H]2O[C@@H]2O[C@H](CO)[C@@H](O)[C@H](O)[C@H]2O)[C@H]1O (stereo not given in full) | 4.07% [at 19.1 µM] (inactive)
8. C[C@@H]1O[C@@H](O[C@H]2[C@H](O)[C@@H](O)[C@H](OC[C@H]3O[C@@H](OC(=O)[C@]45CCC(C)(C)C[C@H]4C4=CCC6[C@@]7(C)C[C@H](O)[C@H](O[C@@H]8O[C@H](CO)[C@@H](O)[C@H](O)[C@H]8O)[C@@](C)(C(=O)O)C7CC[C@@]6(C)[C@]4(C)CC5)[C@H](O[C@@H]4O[C@H](CO)[C@@H](O)[C@H](O)[C@H]4O)[C@@H](O)[C@@H]3O)O[C@@H]2CO)[C@H](O)[C@H](O)[C@H]1O (stereo not given in full) | -27.3% [at 19.1 µM] (inactive)
9. CC(C)(C)NCc1cc(Nc2ccnc3cc(Cl)ccc23)c2c(c1O)CCCC2 | 0% [at 1.28 µM] (inactive)
10. C=CC(C)(O)CC/C=C(\C)C(=O)OC1CC2(C(=O)O)CCC3(C)C(=CCC4C5(C)CCC(OC6OC(COC7OCC(O)C(O)C7O)C(O)C(OC7OCC(O)C(O)C7O)C6OC6OC(CO)C(O)C(O)C6OC6OCC(O)C(O)C6O)C(C)(C)C5CCC43C)C2CC1(C)C (stereo not given) | -12.7% [at 19.1 µM] (inactive)
11. CC1OC(OC2C(CO)OC(OCC3OC(OC(=O)C45CCC(C)(C)CC4C4=CCC6C7(C)CCC(OC8OC(C(=O)O)C(O)C(OC9OC(CO)C(O)C(O)C9O)C8O)C(C)(C)C7CCC6(C)C4(C)CC5)C(O)C(O)C3O)C(O)C2O)C(O)C(O)C1O (stereo not given) | 16.6% [at 19.1 µM] (inactive)
12. CC1(C)CC2C3=CCC4C5(C)CCC(OC6OC(CO)C(O)C(OC7OC(CO)C(O)C(OC8OC(CO)C(O)C(OC9OC(COC%10OC(CO)C(O)C(O)C%10O)C(O)C(O)C9O)C8O)C7O)C6O)C(C)(C)C5CCC4(C)C3(C)CCC2(C(=O)O)CC1O (stereo not given) | -21.5% [at 19.1 µM] (inactive)
13. C[C@@H]1O[C@@H](O[C@H]2[C@H](OC(=O)[C@]34CCC(C)(C)C[C@H]3C3=CCC5[C@@]6(C)C[C@H](O)[C@H](O[C@@H]7O[C@H](CO[C@@H]8OC[C@H](O)[C@H](O)[C@H]8O)[C@@H](O)[C@H](O)[C@H]7O)C(C)(C)C6CC[C@@]5(C)[C@]3(C)C[C@H]4O)OC[C@@H](O)[C@@H]2O)[C@H](O)[C@H](O[C@@H]2OC[C@](O)(CO)[C@H]2O)[C@H]1O[C@@H]1OC[C@H](O)[C@H](O[C@@H]2OC[C@@H](O)[C@H](O)[C@H]2O)[C@H]1O (stereo not given in full) | 12.7% [at 19.1 µM] (inactive)
14. C=CC(C)(O)CC/C=C(/C)C(=O)OC1C(OC2OCC(OC3OC(CO)C(O)C(O)C3O)C(OC3OCC(O)C(OC4OC(C)C(O)C(O)C4O)C3O)C2O)COC(OC(=O)C23CCC(C)(C)CC2C2=CCC4C5(C)CCC(OC6OC(CO)C(OC7OC(CO)C(O)C(OC8OCC(O)C(O)C8O)C7O)C(O)C6O)C(C)(C)C5CCC4(C)C2(C)CC3O)C1O (stereo not given) | 23.5% [at 19.1 µM] (inactive)
15. C[C@@H]1O[C@@H](O[C@@H]2[C@@H](O)[C@H](O[C@@H]3[C@@H](O)[C@@H](O)[C@H](O[C@H]4[C@H](OC(=O)[C@]56CCC(C)(C)C[C@H]5C5=CCC7[C@@]8(C)C[C@H](O)[C@H](O[C@@H]9O[C@@H](C)[C@H](O)[C@@H](O)[C@H]9O)[C@@](C)(CO)C8CC[C@@]7(C)[C@]5(C)C[C@H]6O)O[C@H](C)[C@H](O)[C@@H]4O)O[C@H]3C)OC[C@H]2O)[C@H](O)[C@H](O)[C@H]1O (stereo not given in full) | -9.55% [at 19.1 µM] (inactive)
